Reported abundance fitness values follow for various variants
B1: Protein piccolo, residues 1058 to 1114; numbered along this chain, Q9Y6V0 (parent)
chain: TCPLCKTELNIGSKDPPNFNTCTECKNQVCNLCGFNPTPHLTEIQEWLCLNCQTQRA

Variants of: B1
assay text: abundance fitness (aPCA) (normalised: wild type 0, dead -1); higher = more abundant; growth selection in yeast, the domain comes from the species named
cond: Homo sapiens
A bare number is all that is needed in reply.

In: Provide only the value of recorded abundance fitness for `P17I`
Out: -0.448
